- System: NCI-H522
- test-description: NCI tumour cell line growth inhibition, 48 h
The source made the active and inactive calls. No stated cut-off is given here; in the data, active = GI50 up to about 1.1 µM and inactive = higher.
measured-attribute: GI50

Query the reported GI50 for NCI-H522; item: O=C(O)C(Cc1ccccc1)NCc1c(O)ccc2c(-c3ccccc3)cc(=O)oc12 (stereo not given)
> 100 µM (inactive)

Which GI50 is reported with NCI-H522 for this entry: `C[C@H]1CC[C@H]([C@@H](C)[C@H]2[C@@H](O)C[C@H]3[C@@H]4CC[C@H]5C[C@@H](O)CC[C@]5(C)[C@H]4CC[C@]23C)NC1` ?
15.8 µM (inactive)

API: value(readout=GI50, system=NCI-H522) for record COC(=O)c1ccccc1C1CN=NC12Cc1ccc(C)c(C)c1C2=O (stereo not given)
6.84 µM (inactive)

Can you look up GI50 on NCI-H522 for `CC[C@]12C=CCN3CC[C@@]4(c5cc(Br)c(OC)cc5N(C)[C@H]4[C@@](O)(C(=O)NN)[C@@H]1O)[C@@H]32` ?
52.2 µM (inactive)

Missing value: GI50, NCI-H522, entry `O=[N+]([O-])c1cccnc1S(=O)(=O)c1ccccc1` . Fill in?
1.46 µM (inactive)

What is its GI50 for NCI-H522? Entry: `Cc1n[nH]c(=O)n1Nc1ccccc1`
> 100 µM (inactive)

GET /values?readout=GI50&system=NCI-H522&item= COc1cc([N+](=O)[O-])ccc1N1C(=O)C2c3[nH]c4ccccc4c3C3CCC(C(C)(C)C)CC3C2C1=O (stereo not given)
42.4 µM (inactive)

Record lookup: for NCI-H522, what GI50 belongs to CCOc1ccc(/N=N/C2C(=O)N(C(=O)CC(=O)Nc3ccccc3)N=C2C)cc1 (stereo not given) ?
83.9 µM (inactive)

What is its GI50 for NCI-H522? Entry: `CCN(CC)CCNc1ccc2nnn3c4ccccc4c(=O)c1c23`
4.75 µM (inactive)

Form entry - test system: NCI-H522; read-out: GI50; compound: `NS(=O)(=O)c1ccc(NC(=O)c2ccc3nc4ccccc4c(Nc4ccc(S(N)(=O)=O)cc4)c3c2)cc1`
> 100 µM (inactive)

For NCI-H522, provide GI50 of `COc1ccc(OC)c(-c2cc(C(=O)O)c3cc4ccccc4cc3n2)c1` please.
> 100 µM (inactive)

What measured GI50 is associated with Cc1nn(C(=O)c2ccncc2)c2c1C(c1ccccc1)SC(=N)N2 (stereo not given) on NCI-H522?
> 10 µM (inactive)

Give recorded GI50 with NCI-H522 for the following compound: `COc1ccc(OCC(=O)O)c2c1CCCC2=O`
> 100 µM (inactive)

// lookup GI50 | system=NCI-H522 | key= `O=c1cc(-c2ccccc2)oc2cc(OCCSCCCCCCCCCCSCCOc3ccc4c(=O)cc(-c5ccccc5)oc4c3)ccc12`
94.2 µM (inactive)

# returns recorded GI50 (system: NCI-H522) for `COc1nc2sc3c(c2c(=O)n1CCCSSCCCn1c(OC)nc2sc4c(c2c1=O)CCCC4)CCCC3`
> 100 µM (inactive)
